Examples of compounds with documented viability, T/C follow.
- System: 855422-203-R-J1-PDC complex spheroid viability;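 note: drug exposure lasted 7 days starting on day 3 after seeding; luminescence viability as percent of DMSO vehicle wells = 100%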
- assay.method.text: Anticancer human tumor 855422-203-R-J1-PDC patient-derived bladder carcinoma cell line growth inhibition
- condition.summary: second compound 3.16 µM; first compound 1 µM; hits give low values
// return numeric value only (unit: %, not printed)

Example entries begin here.
# compound, viability, T/C [%]
data = [
    ("CC1COCCN1c1cc(C2(S(C)(=N)=O)CC2)nc(-c2ccnc3[nH]ccc23)n1 (centres undefined) + NC1CC1c1ccc(-c2cccc(O)c2)cc1", 77.2),
    ("COc1cc(Nc2ncc3c(n2)-c2ccc(Cl)cc2C(c2c(F)cccc2OC)=NC3)ccc1C(=O)O + NC1CC1c1ccc(-c2cccc(O)c2)cc1", 43.4),
    ("COc1ccc([C@@H](O)c2cc(-c3ncnc4cc(N5CCOCC5)ccc34)c(F)cc2Cl)nn1 + NC1CC1c1ccc(-c2cccc(O)c2)cc1", 69.8),
]

// fetch 855422-203-R-J1-PDC complex spheroid viability viability, T/C for CC1COCCN1c1cc(C2(S(C)(=N)=O)CC2)nc(-c2ccnc3[nH]ccc23)n1 (centres undefined) + NC1CCC(NC2CC2c2ccccc2)CC1
83.3

Source of measurements: PubChem BioAssay AID1918943
